The values you see were collected from ChEMBL document CHEMBL4431369.

Assay: Ratio of compound IC50 to BBR IC50 for cytotoxicity against human HepG2 cells
Assay type: cell-based
Conditions: read-out: Ratio IC50
# selectivity ratio values compiled below
Reply with the value as a number alone.

Req: Endpoint output: selectivity ratio of COc1cc(/C=C/C(=O)Oc2c(OC)ccc3cc4[n+](cc23)CCc2cc3c(cc2-4)OCO3)ccc1OC(C)=O.[Cl-] . Value?
Resp: 1.57

Req: Endpoint output: selectivity ratio of COc1cc(/C=C/C(=O)Oc2c(OC)ccc3cc4[n+](cc23)CCc2cc3c(cc2-4)OCO3)ccc1OC(=O)c1cccnc1.[Cl-] . Value?
Resp: 1.95

====

Tested on: HepG2
Test: Cytotoxicity against human HepG2 cells assessed as reduction in cell viability after 48 hrs by MTT assay
Format: cell-based
Conditions: human, hepg2, 48 h
readoutName: Activity

{"compound": "COc1ccc2cc3[n+](cc2c1OC(=O)c1cccc([N+](=O)[O-])c1)CCc1cc2c(cc1-3)OCO2.[Cl-]", "measuredTarget": "HepG2", "endpointValue": "Dose-dependent effect"}
{"compound": "COc1ccc2cc3[n+](cc2c1OC)CCc1cc2c(cc1-3)OCO2 [BERBERINE]", "measuredTarget": "HepG2", "endpointValue": "Dose-dependent effect"}
{"compound": "COc1ccc2cc3[n+](cc2c1OC(=O)c1cccnc1)CCc1cc2c(cc1-3)OCO2.[Cl-]", "measuredTarget": "HepG2", "endpointValue": "Dose-dependent effect"}
{"compound": "COc1cc(/C=C/C(=O)Oc2c(OC)ccc3cc4[n+](cc23)CCc2cc3c(cc2-4)OCO3)ccc1OC(C)=O.[Cl-]", "measuredTarget": "HepG2", "endpointValue": "Dose-dependent effect"}
{"compound": "COc1ccc2cc3[n+](cc2c1OC(=O)c1ccc(OC(C)=O)cc1)CCc1cc2c(cc1-3)OCO2.[Cl-]", "measuredTarget": "HepG2", "endpointValue": "Dose-dependent effect"}

Req: Endpoint output: Activity of COc1cc(/C=C/C(=O)Oc2c(OC)ccc3cc4[n+](cc23)CCc2cc3c(cc2-4)OCO3)ccc1OC(=O)c1cccnc1.[Cl-] . Value?
Resp: Dose-dependent effect

Req: Endpoint output: Activity of COc1ccc2cc3[n+](cc2c1OC(=O)c1ccc([N+](=O)[O-])cc1)CCc1cc2c(cc1-3)OCO2.[Cl-] . Value?
Resp: Dose-dependent effect
